Source listed as patent US12668594B2.

Biological target: TYK2 (Homo sapiens)
Sequence (P29597 whole entry): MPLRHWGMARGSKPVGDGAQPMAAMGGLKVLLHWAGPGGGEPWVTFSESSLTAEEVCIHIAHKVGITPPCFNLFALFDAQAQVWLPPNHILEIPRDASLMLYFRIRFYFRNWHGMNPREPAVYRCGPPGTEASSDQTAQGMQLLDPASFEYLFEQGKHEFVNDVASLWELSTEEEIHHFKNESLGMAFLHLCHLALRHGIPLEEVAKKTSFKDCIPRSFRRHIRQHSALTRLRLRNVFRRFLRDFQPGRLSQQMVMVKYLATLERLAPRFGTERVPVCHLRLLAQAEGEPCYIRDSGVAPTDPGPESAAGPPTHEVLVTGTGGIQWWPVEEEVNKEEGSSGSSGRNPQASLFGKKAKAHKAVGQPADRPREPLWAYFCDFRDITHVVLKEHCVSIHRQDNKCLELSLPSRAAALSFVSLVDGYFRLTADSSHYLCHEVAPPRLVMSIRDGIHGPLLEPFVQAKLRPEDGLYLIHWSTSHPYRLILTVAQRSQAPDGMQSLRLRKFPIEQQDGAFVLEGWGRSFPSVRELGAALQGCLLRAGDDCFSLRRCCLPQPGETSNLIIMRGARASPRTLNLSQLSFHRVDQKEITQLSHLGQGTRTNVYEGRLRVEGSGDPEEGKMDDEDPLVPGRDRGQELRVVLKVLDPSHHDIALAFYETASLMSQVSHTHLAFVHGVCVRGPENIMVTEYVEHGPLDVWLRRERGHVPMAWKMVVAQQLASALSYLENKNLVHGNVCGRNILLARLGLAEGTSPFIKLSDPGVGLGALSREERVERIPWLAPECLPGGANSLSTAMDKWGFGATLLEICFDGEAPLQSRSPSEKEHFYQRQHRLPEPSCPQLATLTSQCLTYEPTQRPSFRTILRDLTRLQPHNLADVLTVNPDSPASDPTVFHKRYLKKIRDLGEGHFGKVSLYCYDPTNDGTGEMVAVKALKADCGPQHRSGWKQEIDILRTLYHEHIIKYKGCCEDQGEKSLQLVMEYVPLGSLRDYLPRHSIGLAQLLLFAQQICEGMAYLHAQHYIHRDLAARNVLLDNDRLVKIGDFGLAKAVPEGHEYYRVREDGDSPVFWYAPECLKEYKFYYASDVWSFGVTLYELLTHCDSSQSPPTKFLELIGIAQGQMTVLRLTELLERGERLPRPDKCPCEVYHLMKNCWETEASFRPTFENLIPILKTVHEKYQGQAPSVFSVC
Experiment: HEK-Blue IFNα/β reporter assay (SEAP) for TYK2 pseudokinase inhibition
Format: cell-based
Details: HEK-Blue IFNα/β cells, 1 ng/mL human recombinant IFNα
Protocol: HEK-Blue™ IL-23 and IFNα/β cells with a stably-integrated cytokine receptor and STAT3 or STAT1 express STAT-inducible secreted embryonic alkaline phosphatase (SEAP) reporter gene upon cytokine stimulation. […] SEAP induction is measured using the QUANTI Blue™ Solution (InvivoGen) according to the manufacturer's instructions. Inhibition data are calculated by comparison to no inhibitor control wells for 000 inhibition and non-stimulated control wells for 10000 inhibition. […]
Consider the following compounds; for each one, report its IC50.

Q: Report IC50 for "COc1cccc(-n2[nH]c(=O)c3cnc(Nc4ccc(F)cn4)cc32)c1F" please.
Result: 10 to 30 µM

Q: Now try "Cc1cc(Nc2cc3c(cn2)c(=O)[nH]n3-c2ccc(C#N)c(Cl)c2)nc(C)n1" .
Result: > 90 µM

Q: // next record "O=c1[nH]n(-c2cccc(OC(F)(F)F)c2)c2cc(Nc3ccc(F)cn3)ncc12"
Result: 10 to 30 µM

Q: And what about the compound "COc1cccc(-n2[nH]c(=O)c3cnc(Nc4cccnn4)cc32)c1" ?
Result: < 10 µM

Q: One more compound: "Cc1cc(Nc2cc3c(cn2)c(=O)[nH]n3-c2cccc(-c3ncn(C)n3)c2)nc(C)n1"
Result: 10 to 30 µM

Q: Query "COc1cccc(-n2[nH]c(=O)c3cnc(Nc4ccc(C(F)(F)F)cn4)cc32)c1" next
Result: < 10 µM

Q: "Cc1cc(Nc2cc3c(cn2)c(=O)[nH]n3-c2ccccc2C)nc(C)n1" , same question.
Result: < 10 µM

Q: Thanks! And "COc1cc(-n2[nH]c(=O)c3cnc(Nc4cc(C)nc(C)n4)cc32)ccn1" ?
Result: < 10 µM

Q: Thanks! And "COc1ccc(-n2[nH]c(=O)c3cnc(NC(=O)C4CC4)cc32)cc1" ?
Result: 10 to 30 µM

Q: What would you report for "N#Cc1ccc(-n2[nH]c(=O)c3cnc(Nc4ccc(F)cn4)cc32)cc1" ?
Result: < 10 µM

Q: Queued: "COc1c(Cl)cccc1-n1[nH]c(=O)c2cnc(Nc3ccc(F)cn3)cc21"
Result: > 90 µM

Q: Also "COc1cc(-n2[nH]c(=O)c3cnc(Nc4cc(C)nc(C)n4)cc32)ccc1C#N" , if possible.
Result: > 90 µM

Q: Here is the next compound: "Cc1cc(Nc2cc3c(cn2)c(=O)[nH]n3-c2cccc(CO)c2)nc(C)n1"
Result: 10 to 30 µM

Q: Cool, now "O=c1[nH]n(-c2ccc(OC(F)(F)F)c(F)c2)c2cc(Nc3ccc(F)cn3)ncc12"
Result: < 10 µM

Q: Can you check "Cc1cc(Nc2cc3c(cn2)c(=O)[nH]n3-c2ccc(C#N)cc2)nc(C)n1" next?
Result: < 10 µM

Q: "Cc1cc(Nc2cc3c(cn2)c(=O)[nH]n3-c2cccc(Cl)c2)nc(C)n1" ?
Result: < 10 µM

Q: Also "Cc1cc(Nc2cc3c(cn2)c(=O)[nH]n3-c2cccnc2)nc(C)n1" ?
Result: 10 to 30 µM
